Target: FGFR2 (Homo sapiens)
Construct: made in house; host or cells: E. coli host derived from BL21, infected with T7 phage
Sequence (P21802 22-821): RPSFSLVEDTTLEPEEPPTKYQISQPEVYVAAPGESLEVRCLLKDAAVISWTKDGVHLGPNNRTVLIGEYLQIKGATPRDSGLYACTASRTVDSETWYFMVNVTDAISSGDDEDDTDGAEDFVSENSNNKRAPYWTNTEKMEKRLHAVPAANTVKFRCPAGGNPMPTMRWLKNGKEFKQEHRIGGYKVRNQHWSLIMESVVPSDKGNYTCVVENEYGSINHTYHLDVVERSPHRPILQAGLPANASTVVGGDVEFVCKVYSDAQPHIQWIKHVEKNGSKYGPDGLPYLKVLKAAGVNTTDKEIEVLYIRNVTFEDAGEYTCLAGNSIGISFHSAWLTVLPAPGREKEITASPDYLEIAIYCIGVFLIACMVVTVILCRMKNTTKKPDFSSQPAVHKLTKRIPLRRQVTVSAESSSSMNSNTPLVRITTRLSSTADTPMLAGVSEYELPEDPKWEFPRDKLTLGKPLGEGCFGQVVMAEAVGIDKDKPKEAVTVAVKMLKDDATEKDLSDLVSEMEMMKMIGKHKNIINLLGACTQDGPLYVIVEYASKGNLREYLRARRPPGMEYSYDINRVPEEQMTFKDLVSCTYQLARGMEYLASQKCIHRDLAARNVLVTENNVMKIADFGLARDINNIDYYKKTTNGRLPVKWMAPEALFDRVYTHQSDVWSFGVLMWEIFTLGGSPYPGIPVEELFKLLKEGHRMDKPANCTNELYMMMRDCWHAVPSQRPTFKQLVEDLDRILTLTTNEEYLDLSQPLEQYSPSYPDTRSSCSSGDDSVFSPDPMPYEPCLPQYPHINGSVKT
Test: Kinase binding assay (Kd), FGFR2
Conditions: 11-point 3-fold dilution, qPCR readout

compound | tested.system | Kd
CCC(=O)Nc1ccc2c(ccn2-c2nc(Nc3ccc(N=S(C)(C)=O)cc3)ncc2Cl)c1 [Example 68] | FGFR2 (Homo sapiens) | 340 nM
CC(C)Oc1cc(N=S(C)(C)=O)ccc1Nc1ncc(Cl)c(-c2c[nH]c3ccccc23)n1 [Example 3] | FGFR2 (Homo sapiens) | 11000 nM
COc1cc(N2CCS(=N)(=O)CC2)ccc1Nc1ncc(C)c(-n2ccc3ccccc32)n1 [Example 46] | FGFR2 (Homo sapiens) | 4400 nM
C=CC(=O)Nc1ccc2c(c1)c(C)cn2-c1nc(Nc2ccc(N=S(C)(C)=O)c(OC)c2)ncc1Cl [Example 64] | FGFR2 (Homo sapiens) | 4 nM
C=CC(=O)Nc1ccc2c(ccn2-c2nc(Nc3ccc(N4CCS(=N)(=O)CC4)cc3)ncc2Cl)c1 [Example 72] | FGFR2 (Homo sapiens) | 100 nM
COc1cc(N=S2(=O)CCN(C(C)C)CC2)ccc1Nc1ncc(Cl)c(-c2c[nH]c3ccccc23)n1 [Example 40] | FGFR2 (Homo sapiens) | 860 nM
C=CC(=O)Nc1ccc2c(c1)c(C)cn2-c1nc(Nc2ccc(N=S(C)(C)=O)c(F)c2)ncc1Cl [Example 60] | FGFR2 (Homo sapiens) | 3.2 nM
COc1cc(S(C)(=N)=O)ccc1Nc1ncc(Cl)c(-n2ccc3ccccc32)n1 (stereo not shown) [Example 41] | FGFR2 (Homo sapiens) | 18000 nM
CS(C)(=O)=Nc1ccc(Nc2ncc(Cl)c(-c3c[nH]c4ccccc34)n2)cc1 [Example 8] | FGFR2 (Homo sapiens) | 24 nM
CS(C)(=O)=Nc1ccc(Nc2ncc(F)c(-c3c[nH]c4ccccc34)n2)cc1 [Example 59] | FGFR2 (Homo sapiens) | 50 nM
Cc1cnc(Nc2ccc(S(=N)(=O)C3CC3)cc2)nc1-c1c[nH]c2ccccc12 (stereo not shown) [Example 51] | FGFR2 (Homo sapiens) | 6 nM
Cc1cnc(Nc2ccc(N=S(C)(C)=O)cc2)nc1-c1c[nH]c2cc(F)ccc12 [Example 29] | FGFR2 (Homo sapiens) | 46 nM
C=CC(=O)Nc1ccc2c(ccn2-c2nc(Nc3ccc(S(C)(=N)=O)cc3)ncc2Cl)c1 (stereo not shown) [Example 70] | FGFR2 (Homo sapiens) | 25 nM
N=S1(=O)CCN(c2ccc(Nc3ncc(Cl)c(-n4ccc5c(N)cccc54)n3)cc2)CC1 [Example 82] | FGFR2 (Homo sapiens) | 50 nM
Cc1cnc(Nc2ccc(N=S(C)(C)=O)c(OCCN3CCOCC3)c2)nc1-c1c[nH]c2ccccc12 [Example 27] | FGFR2 (Homo sapiens) | 1 nM
C=CC(=O)Nc1ccc2c(ccn2-c2nc(Nc3ccc(N=S(C)(C)=O)c(F)c3)ncc2Cl)c1C [Example 84] | FGFR2 (Homo sapiens) | 330 nM

* * *

Kd overview
Biological target: FGFR1 (Homo sapiens, UniProt P11362)
Construct: made in house; host or cells: E. coli host derived from BL21, infected with T7 phage
Sequence (P11362 22-822): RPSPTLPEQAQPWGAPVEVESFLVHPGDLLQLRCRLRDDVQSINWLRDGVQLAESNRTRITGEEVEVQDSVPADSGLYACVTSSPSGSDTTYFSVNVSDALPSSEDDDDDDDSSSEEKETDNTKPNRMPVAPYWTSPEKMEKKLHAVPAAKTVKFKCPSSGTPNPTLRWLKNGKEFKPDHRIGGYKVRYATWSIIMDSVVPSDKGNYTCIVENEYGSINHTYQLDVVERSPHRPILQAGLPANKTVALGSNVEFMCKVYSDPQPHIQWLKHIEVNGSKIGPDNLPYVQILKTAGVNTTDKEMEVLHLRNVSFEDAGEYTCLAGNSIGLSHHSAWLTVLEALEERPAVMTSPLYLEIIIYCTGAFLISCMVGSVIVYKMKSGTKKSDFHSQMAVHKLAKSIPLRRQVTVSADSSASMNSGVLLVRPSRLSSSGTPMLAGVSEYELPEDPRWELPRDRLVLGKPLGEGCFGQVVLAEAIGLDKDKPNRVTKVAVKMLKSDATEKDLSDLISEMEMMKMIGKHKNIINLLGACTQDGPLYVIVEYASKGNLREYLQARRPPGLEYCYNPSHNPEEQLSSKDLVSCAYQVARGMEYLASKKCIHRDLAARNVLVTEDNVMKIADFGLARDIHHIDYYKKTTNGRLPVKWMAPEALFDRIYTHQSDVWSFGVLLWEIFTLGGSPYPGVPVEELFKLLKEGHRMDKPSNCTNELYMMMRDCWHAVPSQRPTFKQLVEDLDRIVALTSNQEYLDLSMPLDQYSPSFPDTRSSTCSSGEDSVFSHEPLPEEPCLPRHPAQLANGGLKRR
Assay: Kinase binding assay (Kd), FGFR1
Settings: 11-point 3-fold dilution, qPCR readout
Method: Kinase-tagged T7 phage strains were prepared in an E. coli host derived from the BL21 strain. E. coli were grown to log-phase and infected with T7 phage and incubated with shaking at 32° C. until lysis. The lysates were centrifuged and filtered to remove cell debris. […] Test compounds were prepared as 111X stocks in 100% DMSO. Kds were determined using an 11-point 3-fold compound dilution series with three DMSO control points. […] The kinase concentration in the eluates was measured by qPCR. […]

molecule | Kd (nM)
CS(C)(=O)=Nc1ccc(Nc2ncc(Cl)c(-n3ccc4c(N)cccc43)n2)cc1 [Example 79] | 140
C=CC(=O)Nc1ccc2c(-c3nc(Nc4ccc(S(=N)(=O)C5CC5)cc4)ncc3Cl)c[nH]c2c1 (stereo not shown) [Example 90] | 47
CCC(=O)Nc1cccc2c1ccn2-c1nc(Nc2ccc(N=S(C)(C)=O)cc2)ncc1Cl [Example 77] | 170
Cn1cc(-c2nc(Nc3ccc(S(=N)(=O)C4CC4)cc3)ncc2Cl)c2ccccc21 (stereo not shown) [Example 50] | 330
C=CC(=O)Nc1ccc2c(cnn2-c2nc(Nc3ccc(N=S(C)(C)=O)cc3)ncc2Cl)c1 [Example 86] | 90
CCC(=O)Nc1ccc2c(ccn2-c2nc(Nc3ccc(N=S(C)(C)=O)cc3)ncc2Cl)c1 [Example 68] | 630
C=CC(=O)Nc1ccc2c(ccn2-c2nc(Nc3ccc(N4CCS(=N)(=O)CC4)cc3)ncc2Cl)c1 [Example 72] | 77
CS(C)(=O)=Nc1cccc(Nc2ncc(Cl)c(-c3c[nH]c4ccccc34)n2)c1 [Example 7] | 21
C=CC(=O)Nc1ccc2c(ccn2-c2nc(Nc3ccc(S(C)(=N)=O)cc3OC)ncc2Cl)c1 (single isomer, unassigned) [Example 88] | 20000
Cc1cnc(Nc2ccc(N=S(C)(C)=O)c(Cl)c2)nc1-c1c[nH]c2ccccc12 [Example 25] | 7
C=CC(=O)Nc1ccc2c(c1)c(C)cn2-c1nc(Nc2ccc(N=S(C)(C)=O)cc2OCC)ncc1Cl [Example 65] | 4000
COc1cc(Nc2ncc(C)c(-c3c[nH]c4c(F)cccc34)n2)ccc1N=S(C)(C)=O [Example 32] | 2
C=CC(=O)Nc1ccc2c(c1)c(C)cn2-c1nc(Nc2ccc(N=S(C)(C)=O)cc2)ncc1Cl [Example 61] | 21
COc1cc(S(C)(=N)=O)ccc1Nc1ncc(Cl)c(-c2c[nH]c3ccccc23)n1 (stereo not shown) [Example 36] | 72
C=CC(=O)Nc1ccc2c(ccn2-c2nc(Nc3ccc(S(C)(=N)=O)cc3)ncc2C)c1 (stereo not shown) [Example 74] | 140
COc1ccc2c(-c3nc(Nc4ccc(N=S(C)(C)=O)cc4)ncc3C)c[nH]c2c1 [Example 30] | 27

* * *

Target: FGFR3 (Homo sapiens)
Construct: made in house; host or cells: E. coli host derived from BL21, infected with T7 phage
Experiment: Kinase binding assay (Kd), FGFR3
Conditions: 11-point 3-fold dilution, qPCR readout

compound | tested.system | Kd [nM]
C=CC(=O)Nc1ccc2c(-c3nc(Nc4ccc(S(=N)(=O)C5CC5)cc4)ncc3Cl)c[nH]c2c1 (centres unmarked) | FGFR3 (Homo sapiens) | 41
CS(C)(=O)=Nc1ccc(Nc2nccc(-c3c[nH]c4ccccc34)n2)cc1 | FGFR3 (Homo sapiens) | 370
Cc1cc(Nc2ncc(C)c(-c3c[nH]c4ccccc34)n2)ccc1N=S(C)(C)=O | FGFR3 (Homo sapiens) | 10
COc1cc(N2CCS(=N)(=O)CC2)ccc1Nc1ncc(Cl)c(-n2ccc3ccccc32)n1 | FGFR3 (Homo sapiens) | 2800
Cc1cnc(Nc2ccc(N=S(C)(C)=O)nc2)nc1-c1c[nH]c2ccccc12 | FGFR3 (Homo sapiens) | 12
CCOc1cc(N=S(C)(C)=O)ccc1Nc1ncc(C)c(-c2c[nH]c3c(C)cccc23)n1 | FGFR3 (Homo sapiens) | 370
COc1cc(N=S2(=O)CCN(C(C)C)CC2)ccc1Nc1ncc(Cl)c(-c2c[nH]c3ccccc23)n1 | FGFR3 (Homo sapiens) | 110
C=CC(=O)Nc1ccc2c(ccn2-c2nc(Nc3ccc(S(C)(=N)=O)cc3OC)ncc2Cl)c1 (single isomer, unassigned) [Example 88] | FGFR3 (Homo sapiens) | 8800

* * *

List of GI50 values.
Target: FGFR3-BAIAP2L1 Ba/F3 cells (Homo sapiens, UniProt P22607)
Construct: Ba/F3 FGFR3; FGFR3--BAIAP2L1 fusion; Advanced Cellular Dynamics, (Seattle, WA); fused on or other part: Q9UHR4 (BAR/IMD domain-containing adapter protein 2-like 1)
Sequence (P22607 whole entry, change not shown, the tested form may be a part): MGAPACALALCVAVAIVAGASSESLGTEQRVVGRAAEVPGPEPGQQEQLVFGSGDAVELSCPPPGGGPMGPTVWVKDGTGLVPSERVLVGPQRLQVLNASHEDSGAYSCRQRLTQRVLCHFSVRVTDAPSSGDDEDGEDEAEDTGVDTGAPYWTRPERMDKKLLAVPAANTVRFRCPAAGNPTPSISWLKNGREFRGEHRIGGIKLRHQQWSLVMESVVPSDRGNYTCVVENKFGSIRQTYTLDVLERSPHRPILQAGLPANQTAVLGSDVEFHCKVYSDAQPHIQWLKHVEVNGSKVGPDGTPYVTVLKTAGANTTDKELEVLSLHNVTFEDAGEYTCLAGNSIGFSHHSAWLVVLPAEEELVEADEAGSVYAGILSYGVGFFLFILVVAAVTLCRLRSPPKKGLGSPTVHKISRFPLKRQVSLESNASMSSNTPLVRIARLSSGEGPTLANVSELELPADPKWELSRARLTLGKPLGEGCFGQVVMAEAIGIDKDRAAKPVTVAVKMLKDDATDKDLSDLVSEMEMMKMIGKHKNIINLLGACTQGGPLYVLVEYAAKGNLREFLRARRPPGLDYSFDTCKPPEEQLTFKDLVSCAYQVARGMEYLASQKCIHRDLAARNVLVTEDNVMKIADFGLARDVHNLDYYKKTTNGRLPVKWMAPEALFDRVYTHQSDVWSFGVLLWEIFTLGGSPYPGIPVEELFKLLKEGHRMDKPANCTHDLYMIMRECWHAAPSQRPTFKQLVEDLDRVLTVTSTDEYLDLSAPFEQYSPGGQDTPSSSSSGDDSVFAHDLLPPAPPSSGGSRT
Assay: Ba/F3 cell viability assay, FGFR3
Format: cell-based
Conditions: FGFR3-BAIAP2L1 fusion Ba/F3, 48 hours, Cell Titer-Glo 2.0; read-out: Ba/F3 Cells FGFR3 (IC50 nM)
observation.type: GI50 (nM)

compound | observation.type | recorded.number
COc1cc(Nc2ncc(C)c(-c3c[nH]c4ccccc34)n2)ccc1N=S(C)(C)=O | GI50 | 15
C=CC(=O)Nc1ccc2c(-c3nc(Nc4ccc(N=S(C)(C)=O)nc4)ncc3Cl)cn(C)c2c1 | GI50 | 23
C=CC(=O)Nc1ccc2c(c1)c(C)cn2-c1nc(Nc2ccc(N=S(C)(C)=O)c(F)c2)ncc1C | GI50 | 5
Cc1cnc(Nc2ccc(S(C)(=N)=O)cc2)nc1-c1c(C)[nH]c2ccccc12 (centres unmarked) | GI50 | 431
C=CC(=O)Nc1ccc2c(-c3nc(Nc4ccc(N=S(C)(C)=O)c(F)c4)ncc3Cl)cn(C)c2c1 | GI50 | 14
C=CC(=O)Nc1ccc2c(c1)c(C)cn2-c1nc(Nc2ccc(N=S(C)(C)=O)c(OC)c2)ncc1Cl | GI50 | 12
C=CC(=O)Nc1cc2ccn(-c3nc(Nc4ccc(N=S(C)(C)=O)cc4)ncc3Cl)c2cc1C | GI50 | 459
COc1cc(Nc2ncc(C)c(-c3c[nH]c4c(C)cccc34)n2)ccc1N=S(C)(C)=O | GI50 | 40
